test system: P. falciparum 3D7 growth, pLDH absorbance; test: blood-stage malaria parasite growth potency – strain 3D7, dose response (AID 2305)
Returns: string. Value is condition met if measured IC50 is below 200 nM, and condition not met if it is greater than or equal to it.

Examples from the recorded data:
[
  {
    "molecule": "CC(C)c1ccc(NC(=O)N[C@H]2CCN(CCCCCNC(=O)/C=C/c3ccc(Cl)c(Cl)c3)C2)cc1",
    "labelClass": "condition not met"
  },
  {
    "molecule": "CCN1CCN(CCCNc2ccnc3cc(Cl)ccc23)CC1",
    "labelClass": "condition met"
  },
  {
    "molecule": "CCCCOc1ccc(C(O)C(CN2CCCCC2)c2ccccc2)cc1 (stereo not given)",
    "labelClass": "condition not met"
  },
  {
    "molecule": "COc1c(C2CCN(CCCCNC(=O)c3ccc(-c4ccc(Cl)cc4)c(OCCN(C)C)c3)CC2)ccc2c1CCCC2",
    "labelClass": "condition met"
  }
]

Consider now this further molecule.
Q. Is the reported IC50 for CS(=O)(=O)Nc1cccc(-c2cnc3[nH]cc(-c4cccc(CN)c4)c3c2)c1 strictly below 200 nM?
A. condition not met

----------
test system: P. falciparum 3D7 growth, pLDH absorbance; assay: blood-stage malaria parasite growth potency – strain 3D7, dose response (AID 2305)
readoutKind: pIC50
Conceptually, pIC50 converts a concentration in mol/L into minus its log10.

Worked set:
[
  {
    "compound": "O=C(Nc1cccc(-c2ccc(-c3nc4ccc(F)cc4[nH]3)cc2)c1)Nc1ccc(F)c(F)c1F",
    "pIC50": 6.96
  },
  {
    "compound": "CN1CCN(CC2(Nc3nccc(NCc4ccc(Cl)cc4Cl)n3)CCCCC2)CC1",
    "pIC50": 6.23
  },
  {
    "compound": "FC(F)(F)c1cc(Nc2ncnc3ccc(Br)cc23)ccc1OCc1ccccc1",
    "pIC50": 5.97
  },
  {
    "compound": "CN(C)CCOc1ccc(N2CCN(CCCCNC(=O)c3ccc(NC(=O)c4ccc(Cl)cc4)cc3)CC2)cc1",
    "pIC50": 6.08
  },
  {
    "compound": "CCOc1cc(NCCSCc2nc[nH]c2C)nc2ccccc12",
    "pIC50": 6.10
  }
]

Q. Record request: pIC50 value, item O=S(=O)(NCCN1CCCC1)c1ccc(-c2cccc(CNCc3ccccc3)c2)s1
A. 6.09

Q. Record request: pIC50 value, item COc1ccc(OC)c2c1C[C@@H]1NC[C@H]2c2c(OC)ccc(OC)c21
A. 6.01

Q. Record request: pIC50 value, item O=C(/C=C/c1ccc(Cl)c(Cl)c1)N1CCC(CCN2CCC(c3c[nH]c4ccncc34)CC2)CC1
A. 5.94

Q. Record request: pIC50 value, item O=C(Nc1cccc(-c2ccc(-c3nc4ccccc4[nH]3)cc2)c1)c1cccnc1
A. 5.98

Q. Record request: pIC50 value, item CCCCCCCN1CC[C@@H](CCCc2ccnc3ccc(OCCCCNC(N)=O)cc23)[C@@H](CC)C1
A. 6.08

Q. Record request: pIC50 value, item COc1cc(F)c2nccc([C@@H](O)CN3CC[C@H](NCc4ccc5c(n4)NC(=O)CS5)[C@H](F)C3)c2c1
A. 5.93

----------
tested on: P. falciparum 3D7 growth, pLDH absorbance; assay: blood-stage malaria parasite growth potency – strain 3D7, dose response (AID 2305)
readoutKind: IC50 (µM)
Respond numerically; units are µM and should not be typed.

Worked set:
[
  {
    "compound": "Cn1cncc1-c1cc2c(Nc3ccc(OCc4ccccc4)cc3)ncnc2cn1",
    "reported": 0.27
  },
  {
    "compound": "COc1ccc(OCCCN2CCN(CC(c3ccc(F)cc3)N3CCN(C(C)C)CC3)CC2)c2ccccc12 (stereo not given)",
    "reported": 0.65
  },
  {
    "compound": "Fc1ccc2nc(-c3ccc(-c4ccc(CNCCc5ccncc5)cc4)s3)[nH]c2c1",
    "reported": 0.14
  },
  {
    "compound": "O=C(Nc1ccccc1)N(Cc1cccc(-c2ccc(CNCCc3ccccc3)cc2)c1)C1CCN(Cc2ccccc2)CC1",
    "reported": 0.35
  },
  {
    "compound": "Cc1ccccc1C1CCN(c2ncc(C(=O)Nc3ccccc3)cc2Cl)CC1",
    "reported": 1.01
  }
]

Q. Which measured IC50 belongs to CC(C)c1cccc(OCC2CCN(c3ncc(C(=O)NC4CC4)cc3Cl)CC2)c1 , tested on P. falciparum 3D7 growth, pLDH absorbance?
A. 0.68

Q. Which measured IC50 belongs to O=C(Cc1ccc(Cl)cc1)NC1CCN(c2ccnc3cc(Cl)ccc23)C1 (stereo not given) , tested on P. falciparum 3D7 growth, pLDH absorbance?
A. 0.23

Q. Which measured IC50 belongs to COc1cc(CNCCCNc2cc(=O)c3ccccc3[nH]2)c2c(c1)C(C)CN2C(=O)OC(C)(C)C (stereo not given) , tested on P. falciparum 3D7 growth, pLDH absorbance?
A. 0.73

Q. Which measured IC50 belongs to NC1=NCN(OCc2ccc(Cl)c(Cl)c2)C(N)=N1 , tested on P. falciparum 3D7 growth, pLDH absorbance?
A. 0.19

Q. Which measured IC50 belongs to CCCN1CCN(CCCCNc2c3ccccc3nc3ccccc23)CC1 , tested on P. falciparum 3D7 growth, pLDH absorbance?
A. 0.41

----------
Listed here are molecules together with their documented pIC50.
test system: P. falciparum 3D7 growth, pLDH absorbance; experiment: blood-stage malaria parasite growth potency – strain 3D7, dose response (AID 2305)
Conceptually, pIC50 converts a concentration in mol/L into minus its log10.

[
  {
    "molecule": "O=C(Nc1ccc(OC2CCN(Cc3ccc(F)cc3)CC2)c(Cl)c1)c1ccsc1",
    "reported": 6.14
  },
  {
    "molecule": "O=C(/C=C/c1ccccc1Cl)Nc1ccc(Br)c(OCCN2CCC(O)(c3ccccc3)CC2)c1",
    "reported": 6.32
  },
  {
    "molecule": "COc1ccc2c(NN=Cc3ccccc3Cl)ccnc2c1",
    "reported": 6.21
  },
  {
    "molecule": "Cc1nc(NCCCn2ccnc2)cc(-c2cncc(-c3ccc(OC(F)(F)F)cc3)c2)n1",
    "reported": 6.21
  }
]

Q. Which measured pIC50 belongs to Cc1cccc2[nH]c(-c3ccc(-c4ccc(CN5CCC(N)C5)cc4)s3)nc12 (stereo not drawn) , tested on P. falciparum 3D7 growth, pLDH absorbance?
A. 6.43

Q. Which measured pIC50 belongs to COc1c(OC)c(OC)c2ccccc2c1CCNCCCCNCCc1c(OC)c(OC)c(OC)c2ccccc12 , tested on P. falciparum 3D7 growth, pLDH absorbance?
A. 6.21

Q. Which measured pIC50 belongs to Cc1cc(C(=O)CN2C(=O)NC3(CCCc4ccccc43)C2=O)c(C)n1Cc1ccc(F)cc1 (stereo not drawn) , tested on P. falciparum 3D7 growth, pLDH absorbance?
A. 6.01

Q. Which measured pIC50 belongs to COc1ccc(NC(=O)Nc2ccc(-c3ccc(-c4nc5c(C)cccc5[nH]4)s3)cc2)cc1 , tested on P. falciparum 3D7 growth, pLDH absorbance?
A. 6.74

Q. Which measured pIC50 belongs to CO/N=C(\C)c1ccc2c(c1)CCN(CCC1CCC(NC(=O)c3cccc(-c4noc(C)n4)c3)CC1)CC2 (stereo not drawn) , tested on P. falciparum 3D7 growth, pLDH absorbance?
A. 6.62

----------
system: P. falciparum 3D7 growth, pLDH absorbance; experiment: blood-stage malaria parasite growth potency – strain 3D7, dose response (AID 2305)
Listed here are molecules together with their documented IC50.
Respond numerically; units are µM and should not be typed.

Worked set:
[
  {
    "molecule": "CC(C)=CC1C(C(=O)n2c(N)nc3ccccc32)C1(C)C (stereo not given)",
    "system": "P. falciparum 3D7 growth, pLDH absorbance",
    "readoutKind": "IC50",
    "unitInfo": "µM",
    "reported": 0.19
  },
  {
    "molecule": "O=C(/C=C/c1ccc(Cl)c(Cl)c1)NCC1CCN(Cc2ccc(O)cc2)CC1",
    "system": "P. falciparum 3D7 growth, pLDH absorbance",
    "readoutKind": "IC50",
    "unitInfo": "µM",
    "reported": 0.69
  },
  {
    "molecule": "CC(=O)Nc1ncc(C(=O)Nc2cccc(-c3ccc(-c4nc5ccccc5[nH]4)cc3)c2)s1",
    "system": "P. falciparum 3D7 growth, pLDH absorbance",
    "readoutKind": "IC50",
    "unitInfo": "µM",
    "reported": 0.67
  }
]

Q. Record request: IC50 value, item COc1ccc(Nc2ncc(C#N)c(Nc3ccccc3C(N)=O)n2)cc1N1CCN(C)CC1
A. 0.14

Q. Record request: IC50 value, item COc1cc(-c2cc(-c3ccc(OCCN(C)C)cc3)[nH]c2-c2ccncc2)ccc1Cl
A. 0.71

Q. Record request: IC50 value, item O=C(NC1CC1)c1cnc(N2CCN(Cc3c(F)cccc3Cl)CC2)c(Cl)c1
A. 0.91

Q. Record request: IC50 value, item Cn1nccc1C(=O)NCCNCc1cccc(-c2cccc(-c3nc4ccc(C(F)(F)F)cc4[nH]3)c2)c1
A. 0.17

Q. Record request: IC50 value, item CCCC(CNCc1cccc(C)c1)CNc1cc(=O)c2ccccc2[nH]1 (stereo not given)
A. 0.63

Q. Record request: IC50 value, item CN(C)c1ccc(-c2cscc2C(=O)NC2CCCN(Cc3cccnc3)C2)cc1 (stereo not given)
A. 0.86

Q. Record request: IC50 value, item CCCOc1ccccc1C(=O)Nc1nonc1-c1ccc(OCC)c(OCC)c1
A. 0.71
